Values compiled from ChEMBL document CHEMBL4316629.

# study system: UniProt:P18031
# Sequence (P18031 whole entry): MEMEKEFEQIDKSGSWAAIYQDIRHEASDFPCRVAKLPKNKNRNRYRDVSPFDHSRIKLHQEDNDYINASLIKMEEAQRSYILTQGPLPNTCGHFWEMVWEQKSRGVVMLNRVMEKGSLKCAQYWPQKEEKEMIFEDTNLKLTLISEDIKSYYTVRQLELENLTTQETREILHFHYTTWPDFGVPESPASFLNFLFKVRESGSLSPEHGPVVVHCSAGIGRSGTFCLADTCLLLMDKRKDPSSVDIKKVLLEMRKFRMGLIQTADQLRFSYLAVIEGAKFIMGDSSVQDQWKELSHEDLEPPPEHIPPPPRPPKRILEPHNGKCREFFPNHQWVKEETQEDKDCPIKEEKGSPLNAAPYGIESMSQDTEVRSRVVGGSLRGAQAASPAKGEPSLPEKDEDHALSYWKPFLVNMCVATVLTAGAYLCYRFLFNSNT
pIC50: −log10 of the molar value.
assay readout: pIC50

{"columns": ["smiles structure", "assay readout", "assay value"],
 "data": [
  ["O=C(O)CCCN1C(=O)/C(=C/c2cn(-c3ccccc3)nc2-c2ccc(Cl)cc2)SC1=S", "pIC50", 5.64],
  ["O=C(O)CN1C(=O)/C(=C/c2cn(-c3ccccc3)nc2-c2cccc(Cl)c2)SC1=S", "pIC50", 4.88],
  ["O=C(O)[C@@H](Cc1ccccc1)N1C(=O)/C(=C/c2cn(-c3ccccc3)nc2-c2ccccc2)SC1=S", "pIC50", 5.20],
  ["O=C(O)CCCCCN1C(=O)/C(=C/c2cn(-c3ccccc3)nc2-c2ccc(Cl)cc2)SC1=S", "pIC50", 5.73]
]}
